Attribution: ChEMBL document CHEMBL3745707

Biological target: Fibroblast growth factor receptor 1 (Homo sapiens, UniProt P11362)
Sequence (P11362 whole entry): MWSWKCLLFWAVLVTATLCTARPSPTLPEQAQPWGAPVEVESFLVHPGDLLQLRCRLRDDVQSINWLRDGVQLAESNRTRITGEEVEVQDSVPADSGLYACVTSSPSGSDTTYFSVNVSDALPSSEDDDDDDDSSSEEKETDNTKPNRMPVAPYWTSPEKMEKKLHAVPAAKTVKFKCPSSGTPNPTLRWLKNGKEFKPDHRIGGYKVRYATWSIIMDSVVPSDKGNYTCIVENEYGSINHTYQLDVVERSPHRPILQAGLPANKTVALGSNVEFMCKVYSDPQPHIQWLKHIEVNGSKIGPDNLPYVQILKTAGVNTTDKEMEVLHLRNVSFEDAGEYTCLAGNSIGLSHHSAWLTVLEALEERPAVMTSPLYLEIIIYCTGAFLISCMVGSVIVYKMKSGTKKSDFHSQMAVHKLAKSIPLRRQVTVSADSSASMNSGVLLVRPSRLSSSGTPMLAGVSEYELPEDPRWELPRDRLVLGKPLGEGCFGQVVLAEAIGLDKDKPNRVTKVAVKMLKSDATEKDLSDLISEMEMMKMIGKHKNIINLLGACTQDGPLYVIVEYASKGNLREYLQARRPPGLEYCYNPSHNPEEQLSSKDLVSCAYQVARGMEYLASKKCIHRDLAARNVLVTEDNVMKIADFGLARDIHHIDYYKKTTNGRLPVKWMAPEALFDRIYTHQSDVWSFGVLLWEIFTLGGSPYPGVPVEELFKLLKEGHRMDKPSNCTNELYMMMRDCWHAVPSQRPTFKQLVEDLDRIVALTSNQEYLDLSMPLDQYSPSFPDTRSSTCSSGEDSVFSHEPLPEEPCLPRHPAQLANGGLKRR
assay_metric: IC50

Output measured IC50 for this item: Cn1c(=O)c(S(=O)(=O)c2ccc(F)cc2F)cc2cnc(Nc3ccc4[nH]ccc4c3)nc21 > 5 µM

----------
Molecular target: UniProt P04629
Sequence (P04629 whole entry): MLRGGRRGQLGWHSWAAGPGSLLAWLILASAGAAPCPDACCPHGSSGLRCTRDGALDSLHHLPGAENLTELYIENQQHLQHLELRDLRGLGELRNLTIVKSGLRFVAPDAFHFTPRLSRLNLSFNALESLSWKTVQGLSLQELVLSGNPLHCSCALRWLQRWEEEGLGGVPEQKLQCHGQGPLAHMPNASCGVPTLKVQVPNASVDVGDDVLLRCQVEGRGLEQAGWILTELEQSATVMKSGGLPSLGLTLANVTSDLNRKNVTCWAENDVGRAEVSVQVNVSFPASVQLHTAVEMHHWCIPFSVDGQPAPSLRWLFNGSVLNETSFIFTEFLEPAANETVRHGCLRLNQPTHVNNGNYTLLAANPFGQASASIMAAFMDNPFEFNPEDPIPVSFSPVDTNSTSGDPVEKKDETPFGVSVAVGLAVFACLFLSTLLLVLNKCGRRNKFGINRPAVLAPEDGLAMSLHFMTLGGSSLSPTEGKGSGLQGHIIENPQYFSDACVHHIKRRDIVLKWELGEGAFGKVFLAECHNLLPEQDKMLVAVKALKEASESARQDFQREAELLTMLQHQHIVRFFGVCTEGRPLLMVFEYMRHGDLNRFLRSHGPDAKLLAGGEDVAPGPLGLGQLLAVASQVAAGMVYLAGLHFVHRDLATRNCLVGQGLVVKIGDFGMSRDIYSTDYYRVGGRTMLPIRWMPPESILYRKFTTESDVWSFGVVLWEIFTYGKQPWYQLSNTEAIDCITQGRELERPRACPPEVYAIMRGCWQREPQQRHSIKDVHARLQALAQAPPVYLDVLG
assay_metric: IC50

Give IC50 for Cn1c(=O)c(S(=O)(=O)c2ccc(F)cc2F)cc2cnc(Nc3ccc4[nH]ccc4c3)nc21 > 5 µM

----------
Biological target: Testis-specific serine/threonine-protein kinase 3 (Homo sapiens)
Sequence (Q96PN8 whole entry): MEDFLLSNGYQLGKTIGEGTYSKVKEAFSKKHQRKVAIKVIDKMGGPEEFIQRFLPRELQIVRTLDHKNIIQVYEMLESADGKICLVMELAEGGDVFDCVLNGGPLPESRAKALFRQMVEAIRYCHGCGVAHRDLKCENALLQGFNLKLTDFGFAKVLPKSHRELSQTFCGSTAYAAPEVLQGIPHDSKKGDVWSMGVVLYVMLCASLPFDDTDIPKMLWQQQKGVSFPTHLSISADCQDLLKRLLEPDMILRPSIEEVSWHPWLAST
assay_metric: IC50

Answer with the recorded IC50 for the molecule listed here: Cn1c(=O)c(S(=O)(=O)c2ccc(F)cc2F)cc2cnc(Nc3ccc4[nH]ccc4c3)nc21 > 5 µM

----------
Molecular target: Tubulin (Bos taurus) (UniProt Q6B856+Q862L2+Q862F3)
Experiment: Inhibition of bovine MAP rich tubulin polymerization at 10 uM measured every 2 mins for 30 mins by UV-visible spectrophotometric analysis
Assay type: protein assay
Calls of active or inactive are those of the source. The calls are words filed in the database; no cut-off is given here.
assay_metric: inhibition

Cn1c(=O)c(S(=O)(=O)c2ccc(O)cc2)cc2cnc(Nc3ccc4[nH]ccc4c3)nc21 | Active
Cn1c(=O)c(S(=O)(=O)c2ccc(F)cc2)cc2cnc(Nc3ccc4[nH]ccc4c3)nc21 | Active
Cn1c(=O)c(S(=O)(=O)c2ccc(OC(=O)CCCCC3SCC4NC(=O)NC43)cc2)cc2cnc(Nc3ccc4[nH]ccc4c3)nc21 (centres undefined) | Active

----------
Target: Glycogen synthase kinase-3 alpha (Homo sapiens)
Sequence (P49840 whole entry): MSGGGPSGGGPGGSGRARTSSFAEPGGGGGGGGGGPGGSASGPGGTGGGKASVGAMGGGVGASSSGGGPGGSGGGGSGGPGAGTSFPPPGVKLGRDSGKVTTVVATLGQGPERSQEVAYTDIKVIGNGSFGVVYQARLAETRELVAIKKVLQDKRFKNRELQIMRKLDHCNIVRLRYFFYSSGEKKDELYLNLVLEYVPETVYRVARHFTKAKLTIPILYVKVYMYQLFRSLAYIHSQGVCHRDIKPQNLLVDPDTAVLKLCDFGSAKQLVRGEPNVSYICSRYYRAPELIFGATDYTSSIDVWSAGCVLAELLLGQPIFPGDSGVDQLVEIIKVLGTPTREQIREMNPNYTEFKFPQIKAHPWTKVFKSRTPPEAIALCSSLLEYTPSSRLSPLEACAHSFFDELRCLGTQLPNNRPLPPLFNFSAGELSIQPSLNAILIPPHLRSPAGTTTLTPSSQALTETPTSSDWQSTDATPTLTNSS
assay_metric: IC50

Specify IC50 for Cn1c(=O)c(S(=O)(=O)c2ccc(F)cc2F)cc2cnc(Nc3ccc4[nH]ccc4c3)nc21 and stop. > 5 µM

----------
Biological target: Serine/threonine-protein kinase Nek9 (Homo sapiens, UniProt Q8TD19)
Sequence (Q8TD19 whole entry): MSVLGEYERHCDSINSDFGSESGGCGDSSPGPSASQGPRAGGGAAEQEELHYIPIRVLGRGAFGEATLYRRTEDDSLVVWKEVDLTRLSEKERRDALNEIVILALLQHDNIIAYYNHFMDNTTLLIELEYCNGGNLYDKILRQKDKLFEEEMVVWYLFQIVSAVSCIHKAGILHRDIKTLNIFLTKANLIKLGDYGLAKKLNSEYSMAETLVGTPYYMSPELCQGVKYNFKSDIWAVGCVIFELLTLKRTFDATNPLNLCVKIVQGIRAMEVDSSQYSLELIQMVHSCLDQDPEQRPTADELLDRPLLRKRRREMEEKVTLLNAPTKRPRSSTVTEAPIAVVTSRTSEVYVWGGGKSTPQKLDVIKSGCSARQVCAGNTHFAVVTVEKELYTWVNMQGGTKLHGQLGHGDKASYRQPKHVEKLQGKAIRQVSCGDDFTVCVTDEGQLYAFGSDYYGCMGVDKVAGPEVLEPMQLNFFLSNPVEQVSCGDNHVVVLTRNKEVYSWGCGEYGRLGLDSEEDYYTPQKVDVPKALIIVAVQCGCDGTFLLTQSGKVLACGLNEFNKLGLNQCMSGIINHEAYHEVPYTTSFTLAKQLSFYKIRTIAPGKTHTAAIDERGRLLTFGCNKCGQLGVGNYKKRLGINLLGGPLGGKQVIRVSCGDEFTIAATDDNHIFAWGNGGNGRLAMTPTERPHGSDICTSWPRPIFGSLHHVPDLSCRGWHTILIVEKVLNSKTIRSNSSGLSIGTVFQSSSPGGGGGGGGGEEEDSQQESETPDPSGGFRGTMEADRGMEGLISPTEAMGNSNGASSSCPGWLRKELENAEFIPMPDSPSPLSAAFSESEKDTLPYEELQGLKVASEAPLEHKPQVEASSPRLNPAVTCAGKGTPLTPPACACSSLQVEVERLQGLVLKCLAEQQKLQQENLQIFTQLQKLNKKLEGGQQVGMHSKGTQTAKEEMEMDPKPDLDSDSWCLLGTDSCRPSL
assay_metric: IC50

Supply measured IC50 of Cn1c(=O)c(S(=O)(=O)c2ccc(F)cc2F)cc2cnc(Nc3ccc4[nH]ccc4c3)nc21 in your reply. > 5 µM

----------
Target: Ephrin type-A receptor 6 (Homo sapiens, UniProt Q9UF33)
Sequence (Q9UF33 whole entry): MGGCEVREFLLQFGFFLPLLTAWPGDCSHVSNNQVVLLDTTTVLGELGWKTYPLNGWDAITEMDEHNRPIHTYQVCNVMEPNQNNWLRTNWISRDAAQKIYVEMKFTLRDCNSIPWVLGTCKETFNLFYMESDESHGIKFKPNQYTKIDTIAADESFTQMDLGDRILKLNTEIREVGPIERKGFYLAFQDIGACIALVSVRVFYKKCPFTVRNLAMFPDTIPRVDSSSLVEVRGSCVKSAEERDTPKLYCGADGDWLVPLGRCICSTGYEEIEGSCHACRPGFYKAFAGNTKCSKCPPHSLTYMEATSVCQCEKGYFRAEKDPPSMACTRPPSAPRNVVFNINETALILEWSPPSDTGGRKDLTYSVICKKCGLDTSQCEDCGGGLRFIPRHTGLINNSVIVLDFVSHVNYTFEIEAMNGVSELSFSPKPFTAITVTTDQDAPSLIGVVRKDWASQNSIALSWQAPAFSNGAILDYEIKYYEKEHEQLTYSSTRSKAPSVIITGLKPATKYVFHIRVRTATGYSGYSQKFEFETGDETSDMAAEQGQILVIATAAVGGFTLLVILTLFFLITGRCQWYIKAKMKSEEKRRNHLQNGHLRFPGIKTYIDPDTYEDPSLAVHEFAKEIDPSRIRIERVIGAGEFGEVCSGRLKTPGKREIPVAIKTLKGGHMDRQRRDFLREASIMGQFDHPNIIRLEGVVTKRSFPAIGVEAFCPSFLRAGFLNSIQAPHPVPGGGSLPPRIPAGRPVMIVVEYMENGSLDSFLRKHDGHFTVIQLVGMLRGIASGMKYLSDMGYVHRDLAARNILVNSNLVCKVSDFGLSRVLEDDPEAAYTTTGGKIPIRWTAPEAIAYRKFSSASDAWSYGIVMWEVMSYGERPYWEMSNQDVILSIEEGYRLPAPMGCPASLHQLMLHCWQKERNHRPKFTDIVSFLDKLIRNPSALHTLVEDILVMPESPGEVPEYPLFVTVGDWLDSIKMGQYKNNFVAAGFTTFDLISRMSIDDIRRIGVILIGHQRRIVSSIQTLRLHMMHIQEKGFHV
pIC50: −log10 of the molar value.
assay_metric: pIC50

State, in one line, measured pIC50 of Cn1c(=O)c(S(=O)(=O)c2ccc(F)cc2F)cc2cnc(Nc3ccc4[nH]ccc4c3)nc21 < 5.30

----------
Molecular target: Serine/threonine-protein kinase Nek1 (Homo sapiens, UniProt Q96PY6)
Sequence (Q96PY6 whole entry): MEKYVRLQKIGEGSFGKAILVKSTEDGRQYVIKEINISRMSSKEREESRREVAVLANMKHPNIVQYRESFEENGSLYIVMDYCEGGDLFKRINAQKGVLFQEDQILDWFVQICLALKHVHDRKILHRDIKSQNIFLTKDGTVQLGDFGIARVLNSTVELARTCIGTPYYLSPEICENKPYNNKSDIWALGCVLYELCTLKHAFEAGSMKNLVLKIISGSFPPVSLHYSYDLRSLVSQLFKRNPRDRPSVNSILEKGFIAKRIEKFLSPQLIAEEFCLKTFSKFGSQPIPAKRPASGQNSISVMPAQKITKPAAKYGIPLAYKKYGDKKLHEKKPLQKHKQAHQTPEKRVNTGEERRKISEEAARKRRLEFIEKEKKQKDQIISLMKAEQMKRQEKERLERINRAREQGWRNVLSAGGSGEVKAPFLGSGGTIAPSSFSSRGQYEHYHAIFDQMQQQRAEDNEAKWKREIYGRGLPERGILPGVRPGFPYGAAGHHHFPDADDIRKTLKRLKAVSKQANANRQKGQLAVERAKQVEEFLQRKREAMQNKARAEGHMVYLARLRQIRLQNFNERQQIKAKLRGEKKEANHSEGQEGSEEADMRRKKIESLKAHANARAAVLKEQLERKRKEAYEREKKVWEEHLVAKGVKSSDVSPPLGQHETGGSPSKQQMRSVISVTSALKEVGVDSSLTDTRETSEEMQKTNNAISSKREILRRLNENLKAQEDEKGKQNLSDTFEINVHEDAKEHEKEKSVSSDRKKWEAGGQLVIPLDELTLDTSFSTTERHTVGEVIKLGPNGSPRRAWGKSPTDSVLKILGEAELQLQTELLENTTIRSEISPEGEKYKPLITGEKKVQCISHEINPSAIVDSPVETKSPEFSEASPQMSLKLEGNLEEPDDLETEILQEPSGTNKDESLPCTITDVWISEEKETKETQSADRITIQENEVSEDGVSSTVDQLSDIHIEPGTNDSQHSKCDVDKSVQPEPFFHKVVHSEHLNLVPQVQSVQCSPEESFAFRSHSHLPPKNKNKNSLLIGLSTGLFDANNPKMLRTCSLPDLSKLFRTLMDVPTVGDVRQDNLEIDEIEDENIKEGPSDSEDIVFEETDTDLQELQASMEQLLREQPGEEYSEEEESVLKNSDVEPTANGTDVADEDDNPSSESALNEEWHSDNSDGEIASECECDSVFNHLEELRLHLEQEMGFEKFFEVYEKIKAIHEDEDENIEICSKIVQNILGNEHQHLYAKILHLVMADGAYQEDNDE
assay_metric: IC50 (nM)
Answers are plain numbers, in nM.

Indicate the recorded IC50 value for this compound: Cn1c(=O)c(S(=O)(=O)c2ccc(F)cc2F)cc2cnc(Nc3ccc4[nH]ccc4c3)nc21 630
